Source: ChEMBL document CHEMBL4190393

Quick reference for ΔTm among some compounds
- Target Desc: Lysine--tRNA ligase (Homo sapiens)
- Sequence (Q15046 2-597 limits assumed): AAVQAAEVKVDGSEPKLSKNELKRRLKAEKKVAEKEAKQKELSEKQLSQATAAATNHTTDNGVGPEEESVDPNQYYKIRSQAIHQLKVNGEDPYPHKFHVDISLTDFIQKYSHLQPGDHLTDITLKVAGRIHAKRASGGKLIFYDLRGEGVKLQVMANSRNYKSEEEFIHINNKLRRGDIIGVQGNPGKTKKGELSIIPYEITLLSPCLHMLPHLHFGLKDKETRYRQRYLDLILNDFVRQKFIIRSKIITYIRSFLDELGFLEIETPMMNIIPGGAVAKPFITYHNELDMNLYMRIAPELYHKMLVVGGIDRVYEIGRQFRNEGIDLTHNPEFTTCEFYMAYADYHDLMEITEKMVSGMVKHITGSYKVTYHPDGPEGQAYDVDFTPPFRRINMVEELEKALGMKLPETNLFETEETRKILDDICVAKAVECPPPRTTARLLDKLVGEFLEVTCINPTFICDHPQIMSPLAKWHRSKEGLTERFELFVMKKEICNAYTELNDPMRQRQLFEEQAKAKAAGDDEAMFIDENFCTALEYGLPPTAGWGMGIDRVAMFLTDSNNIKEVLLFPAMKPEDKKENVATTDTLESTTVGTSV
- Protocol Summary: Binding affinity to human KRS expressed in Escherichia coli BL21 by thermal shift assay
Express your answer in °C, writing the number without its unit.

Guide cases for ΔTm, answers given:
• C[C@@H]1CCC[C@@H](C[C@@H]2Cc3cc(O)cc(O)c3C(=O)O2)O1 = -0.9
• C[C@H]1CCC[C@@H](C[C@H]2Cc3cc(O)cc(O)c3C(=O)O2)O1 = 0.1
• C[C@H]1CCC[C@@H](C[C@@H]2Cc3cc(O)cc(O)c3C(=O)O2)O1 = 1.1

Query block: Which ΔTm is listed for "C[C@H]1CCC[C@H](C[C@@H]2Cc3cc(O)cc(O)c3C(=O)O2)O1" ?
Result block: 0.5

Query block: Also check "C[C@@H]1CCC[C@H](C[C@H]2Cc3cc(O)cc(O)c3C(=O)O2)O1"
Result block: 1

Query block: Also check "C[C@@H]1CCC[C@@H](C[C@H]2Cc3cc(O)cc(O)c3C(=O)O2)O1"
Result block: 1.1

Query block: Also check C[C@H]1CCC[C@H](C[C@H]2Cc3cc(O)cc(O)c3C(=O)O2)O1 [CLADOSPORIN]
Result block: 1.3

Query block: Also check "C[C@@H]1CCC[C@H](C[C@@H]2Cc3cc(O)cc(O)c3C(=O)O2)O1"
Result block: 0.3
